Catalogue of binders with associated Luminescence in BaF/3
- targetOrTestSystem: T1, recombinant murine CD300LB overexpressed on BaF/3 cells (mouse, UniProt Q3U497 18-209)
- T1 sequence: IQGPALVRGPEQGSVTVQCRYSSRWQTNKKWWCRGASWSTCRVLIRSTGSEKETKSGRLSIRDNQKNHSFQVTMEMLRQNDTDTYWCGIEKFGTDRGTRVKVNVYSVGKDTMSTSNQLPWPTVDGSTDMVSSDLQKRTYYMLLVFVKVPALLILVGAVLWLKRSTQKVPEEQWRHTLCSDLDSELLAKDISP
- procedureText: cell-based or functional assay
Quick one: just the number, no unit, thanks!

# count of solved cases: 3
anti-CD300LB antibody CD-13 (antibody, V domains shown) VH: QIQLVQSGPELKKPGETVKISCKASGYTFTDYSMHWVKQAPGKGFKWMAWINTETGAPTHADDFRGRFAFSLETSASTAFLQISNLKTEDTATYFCVTFGKSYGMNYWGQGTSVTVSS VL: DIVLTQSPASLSVSLGQRATISCRASKSVGSSGSSYLHWYQQKPGQPPKLLIYLASNLESGVPARFSGSGSGTEFTLNIHPVEEEDAATYYCQHNAEVPPTFGGGTKLEIK :: 22400
anti-CD300LB antibody CD-14 (antibody, V domains shown) VH: QIQLVQSGPELKKPGETVKISCKASGYTFTDYSLHWVKQTPEKNLKWMAWINTETGAPTYADDFKGRFAFSLETSSNTAYLLINNLKNEDTATYFCALTMVNYWGQGTTLTVSS VL: DIVMTQSQKFMSTSVGDRVSVTCKASQNVGIRVAWHQQKPGQSPKTLIYSTSYRYSGVPDRFTGSGSGTEFILTISNVQSEDLAEYFCQQYNSYPYTFGGGTKLEIK :: 19700
anti-CD300LB antibody CD-17 (antibody, V domains shown) VH: QIQLVQSGPELKKPGETVKISCKASGYTLTDYSMHWVKQAPGKGLKWMGWINTETGEPRYGDDFKGRFAFSLETSASSAYLQINNLKNDDTATYFCATYGRSYGMDFWGQGTSVTVSS VL: DIVLTQSPASLAVSLGQRATISCRASKSVSPSGHSYMHWYQQKPGQPPKLLIYLASNLKSGVPARFSGSGSGTDFTLNIHPVEEGDAATYYCQHNRELPPTFGGGSKLEIK :: 24700

Challenge: GET /values?readout=Luminescence in BaF/3&item= anti-CD300LB antibody CD-11 (antibody, V domains shown) VH: QIQLVQSGPEVKKPGETVKISCKASGYTLTDYSMHWVMQTPGTGLKWMAWMNTETGEPTYADDFKGRFAFSLETSAGTAYLQIDNLKNEDTATYFCATYGKSYGMKYWGQGTSVTVSS VL: DIVLTQSPPSLAVSLGQRATISCRATKSVSPYLHWYQQTPGQPPKLLIYLASNLDSGVPARFSGSGSGTDFTLNIHPVEEEDAATYYCQHNKELPPTFGGGTRLEIK
Response given: 22400

Challenge: GET /values?readout=Luminescence in BaF/3&item= anti-CD300LB antibody CD-18 (antibody, V domains shown) VH: DVQLQESGPDLVKPSQSLSLTCTVTGYSITSGYSWHWIRQFPDNKLEWMGYILSRGDTNFNPSLKSRISITRSTSNNQFFLHFNSVTTEDTATYYCARDFFDYWGQGTTLTVSS VL: DVLMTQTPLSLPVSLGDQASISCRSSQSIVHSNGNTYLEWYLQKPGQSPKLLIYKVSDRFSGVPDRFSGSGSGTDFTLKISRVEAEDLGVYFCFQGSHVPYTFGGGTKLEIK
Response given: 13000
